# Experiment description: Percent viability of treated MCF7 cells (flow cytometry)
# Format: cell-based
# Condition details: human, 5 mg/ml DCA, 0.1 mg/ml Etomoxir, or both, time point (24 or 48 hrs) not given
Readout label: viability
Form field: result (number plus unit)

CCOC(=O)C1(CCCCCCOc2ccc(Cl)cc2)CO1 (centres unmarked)	78%

Q: Reported viability, molecule O=C(O)C(Cl)Cl [DCA, Dichloroacetate] : ____
Ans: 42%

====

# Experiment description: Percent viability of treated MCF7 ADR cells (flow cytometry)
# Assay type: cell-based
# Condition details: human, 5 mg/ml DCA, 0.1 mg/ml Etomoxir, or both, time point (24 or 48 hrs) not given
Readout label: viability (%)
Quick note: give the figure in %, leave out the unit.

CCOC(=O)C1(CCCCCCOc2ccc(Cl)cc2)CO1 (centres unmarked) [Etomoxir]	66

Q: Reported viability, compound O=C(O)C(Cl)Cl [DCA, Dichloroacetate] : ____
Ans: 58
